Experiment: Antiproliferative activity against human HPDE6c7 cells after 72 hrs by MTT assay
Format: cell-based
Conditions: HPDE6c7, 72 h
Readout kind: IC50 (µM)
Could you give me the number in µM? Just the number is fine.

CCOP(=O)(CCCOc1ccc(Nc2ncc(Cl)c(Nc3ccccc3C(=O)NC)n2)cc1)OCC: 4.43
CCOP(=O)(Cc1ccc(Nc2ncc([N+](=O)[O-])c(Nc3ccccc3C(=O)NC)n2)cc1)N1CCOCC1 (configuration not stated): 8.11
CNC(=O)c1ccccc1Nc1nc(Nc2ccc(N3CCOCC3)cc2OC)ncc1Cl: 11.4

Return IC50 (reported value) for this compound: "CCOP(=O)(Cc1ccc(Nc2ncc(Cl)c(Nc3ccccc3C(=O)NC)n2)cc1)OCC"
5.44

Report IC50 for "CCOP(=O)(CCCOc1ccc(Nc2ncc([N+](=O)[O-])c(Nc3ccccc3C(=O)NC)n2)cc1)OCC"
1.96

Please look at this compound and report its IC50: "CCOP(=O)(Cc1ccc(Nc2ncc([N+](=O)[O-])c(Nc3ccccc3C(=O)NC)n2)cc1)OCC"
4.6
